molecular target: Matrix metalloproteinase-9 (Homo sapiens, UniProt P14780); test: Inhibition of Matrix metalloprotease-9
Sequence (P14780 whole entry): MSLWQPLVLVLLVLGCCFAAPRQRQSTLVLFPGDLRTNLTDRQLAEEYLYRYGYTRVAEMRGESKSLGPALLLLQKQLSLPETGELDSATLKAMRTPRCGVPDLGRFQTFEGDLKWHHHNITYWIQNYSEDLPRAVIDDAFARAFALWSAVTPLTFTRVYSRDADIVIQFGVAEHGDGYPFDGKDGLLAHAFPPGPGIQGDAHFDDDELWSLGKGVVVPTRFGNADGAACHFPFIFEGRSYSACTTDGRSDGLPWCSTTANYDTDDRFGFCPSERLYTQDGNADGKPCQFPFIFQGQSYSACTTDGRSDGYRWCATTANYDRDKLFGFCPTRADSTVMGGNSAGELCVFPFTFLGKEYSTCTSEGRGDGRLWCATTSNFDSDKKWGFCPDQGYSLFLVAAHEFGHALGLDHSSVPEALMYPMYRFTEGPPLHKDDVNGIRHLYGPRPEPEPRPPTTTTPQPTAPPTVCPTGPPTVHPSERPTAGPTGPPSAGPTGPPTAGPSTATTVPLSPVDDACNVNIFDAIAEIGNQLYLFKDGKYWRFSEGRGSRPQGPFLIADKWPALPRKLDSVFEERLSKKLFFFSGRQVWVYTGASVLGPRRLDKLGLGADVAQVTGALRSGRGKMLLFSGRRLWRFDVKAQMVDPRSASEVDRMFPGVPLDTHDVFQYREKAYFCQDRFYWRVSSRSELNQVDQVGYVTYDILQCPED
pIC50: −log10 of the molar value.
Entries and their pIC50

smiles-input	pIC50
CCCCOc1ccc(S(=O)(=O)N2CC(C)(C)CN(S(=O)(=O)c3ccc(OCCCC)cc3)C2C(=O)NO)cc1	7.00
COc1ccc(S(=O)(=O)N2CC(C)(C)CN(S(=O)(=O)c3ccc(OC)cc3)C2C(=O)NO)cc1	8.57
COc1ccc(S(=O)(=O)N2CCCN(S(=O)(=O)c3ccc(OC)cc3)C2C(=O)NO)cc1	8.41

###

IC50 data for UniProtKB P08254 follow.
Sequence (P08254 whole entry): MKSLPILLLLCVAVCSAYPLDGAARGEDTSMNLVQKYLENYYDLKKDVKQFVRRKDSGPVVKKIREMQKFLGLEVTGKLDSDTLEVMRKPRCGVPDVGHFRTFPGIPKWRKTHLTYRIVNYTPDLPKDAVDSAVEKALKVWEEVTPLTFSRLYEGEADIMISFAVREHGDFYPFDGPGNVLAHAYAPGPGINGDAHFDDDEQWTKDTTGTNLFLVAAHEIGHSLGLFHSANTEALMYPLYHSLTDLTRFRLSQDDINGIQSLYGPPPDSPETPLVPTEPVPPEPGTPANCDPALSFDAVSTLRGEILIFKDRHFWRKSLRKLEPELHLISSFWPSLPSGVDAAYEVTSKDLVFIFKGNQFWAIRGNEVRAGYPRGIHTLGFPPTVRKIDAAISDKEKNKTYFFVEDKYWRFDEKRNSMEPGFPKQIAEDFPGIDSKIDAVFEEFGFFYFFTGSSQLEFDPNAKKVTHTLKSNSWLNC

molecule	IC50 / nM
COc1ccc(S(=O)(=O)N2CC(O)CN(S(=O)(=O)c3ccc(OC)cc3)C2C(=O)NO)cc1 (configuration not stated)	41
COc1ccc(S(=O)(=O)N2CC3(CN(S(=O)(=O)c4ccc(OC)cc4)C2C(=O)NO)SCCCS3)cc1	19.5
